The reported numbers originate from patent US20090306373A1.

Tested on: alpha-MyHC
Assay: alpha-MyHC cytoblot in neonatal rat ventricular myocytes (NRVM)
Assay type: cell-based
Details: Table 1, 72 hours, concentration giving 50% of maximum response
readout: EC50 (nM)
The figure you give is taken to be in nM; do not add the unit.

Input CCC(=O)C1=C(CC)Nc2sc(C(=O)c3ccc(Cl)c(Cl)c3)c(N)c2C1c1ccccc1F (racemic) , output reported EC50. 17.1

----------
Test system: alpha-MyHC
Assay: alpha-MyHC cytoblot in neonatal rat ventricular myocytes (NRVM)
Assay type: cell-based
Settings: Table 1, 72 hours, fitted maximum, percent fraction of low control (vehicle), in %
readout: Max Plateau
Number, no unit, nothing else.

Reference set, count: 2
compound="CC(=O)C1=C(C)Nc2sc(C(=O)c3ccc(Cl)c(Cl)c3)c(N)c2C1c1ccc(Cl)cc1Cl (stereo not drawn) [Compound 52]" readout="Max Plateau" measured_value=122.73
compound="CCC(=O)C1=C(CC)Nc2sc(C(=O)c3ccc(Cl)c(Cl)c3)c(N)c2C1c1ccc2ccccc2c1 (stereo not drawn) [Compound 88]" readout="Max Plateau" measured_value=113.45

Identify measured Max Plateau corresponding to CCC(=O)C1=C(CC)Nc2sc(C(=O)c3ccc(Cl)c(Cl)c3)c(N)c2C1c1cc(F)cc(F)c1 (stereo not drawn) [Compound 100] 262.04

Give the measured Max Plateau for CC(=O)C1=C(C)Nc2sc(C(=O)c3ccc(Cl)c(Cl)c3)c(N)c2C1c1ccc[nH]1 (stereo not drawn) [Compound 42] 160.56

Look up and state reported Max Plateau for CC(=O)C1=C(C)Nc2sc(C(=O)c3ccc(Cl)c(Cl)c3)c(N)c2C1c1ccccc1O (stereo not drawn) [Compound 34] 184.69

Determine its reported Max Plateau: CCC(=O)C1=C(CC)Nc2sc(C(=O)c3ccc(Cl)c(Cl)c3)c(N)c2C1c1ccnc(Cl)c1 (stereo not drawn) [Compound 99] 264.37

Give recorded Max Plateau. CC(=O)C1=C(C)Nc2sc(C(=O)c3ccc(Cl)c(Cl)c3)c(N)c2C1c1ccc(O)cc1Cl (stereo not drawn) [Compound 29] 281.88

Identify the reported Max Plateau for the following entry. CC(=O)C1=C(C)Nc2sc(C(=O)c3ccc(Cl)c(Cl)c3)c(N)c2C1c1cc(Cl)cc(Cl)c1 (stereo not drawn) [Compound 33] 143.15

Supply Max Plateau value. Item: CC(=O)C1=C(C)Nc2sc(C(=O)c3ccccn3)c(N)c2C1c1ccccc1 (stereo not drawn) [Compound 16] 163.33

----------
System: alpha-MyHC
Assay: alpha-MyHC cytoblot in neonatal rat ventricular myocytes (NRVM)
Type: cell-based
Conditions: Table 1, 72 hours, fitted maximum, percent fraction of low control (vehicle), in %
Classify as follows. Reported Max Plateau greater than or equal to 200: Met. Reported Max Plateau below: Not met.

Answered cases to consult:
compound="CC(=O)C1=C(C)Nc2sc(C(=O)c3ccc(Cl)c(Cl)c3)c(N)c2C1c1ccc(Cl)c(Cl)c1 (stereo not shown)" assigned_category="Not met"
compound="CCC(=O)C1=C(CC)Nc2sc(C(=O)c3ccccc3)c(N)c2C1c1c(F)cccc1F (stereo not shown)" assigned_category=Met
compound="CCC(=O)C1=C(CC)Nc2sc(C(=O)c3ccccc3)c(N)c2C1c1ccccc1F (stereo not shown)" assigned_category=Met
compound="CCC(=O)C1=C(CC)Nc2sc(C(=O)c3ccc(Cl)c(Cl)c3)c(N)c2C1c1ccccc1 (stereo not shown)" assigned_category=Met

Does Max Plateau meet or surpass 200 for CCC(=O)C1=C(CC)Nc2sc(C(=O)c3ccc(Cl)c(Cl)c3)c(N)c2C1c1ccc(O)cc1Cl (stereo not shown) ? Met

Is Max Plateau at least 200? Consider CC(=O)C1=C(C)Nc2sc(C(=O)c3ccc(Cl)c(Cl)c3)c(N)c2C1c1ccc(C)cc1 (stereo not shown) Not met

Could you verify whether the entry CC(=O)C1=C(C)Nc2sc(C(=O)c3cccc(C(=O)O)c3)c(N)c2C1c1ccccc1 (stereo not shown) shows Max Plateau of no less than 200? Not met

Assess whether reported Max Plateau for CCC(=O)C1=C(CC)Nc2sc(C(=O)c3cccc(C(=O)OC)c3)c(N)c2C1c1ccccc1 (stereo not shown) sits at 200 or higher. Met

----------
Tested on: alpha-MyHC
Assay: alpha-MyHC cytoblot in neonatal rat ventricular myocytes (NRVM)
Assay type: cell-based
Settings: Table 2, 72 hours, fitted maximum, percent fraction of low control (vehicle), in %
Reported Max Plateau values for the following compounds.
// no unit string in output, number only

Solved entries:
compound="CCOC(=O)C1=C(CC)Nc2sc(C(=O)c3ccc(Cl)c(Cl)c3)c(N)c2C1c1ccccc1F (stereo not drawn)" measured_value=194.32
compound="CCC1=C(C(=O)OC)C(c2c(F)cccc2F)c2c(sc(C(=O)c3ccc(Cl)c(Cl)c3)c2N)N1 (stereo not drawn)" measured_value=213.90
compound="CCC1=C(C(=O)OC)C(c2ccnc(F)c2)c2c(sc(C(=O)c3cccc(Cl)c3)c2N)N1 (racemic)" measured_value=289.91
compound="CCOC(=O)C1=C(CC)Nc2sc(C(=O)c3cc(F)cc(F)c3)c(N)c2C1c1ccccc1 (stereo not drawn)" measured_value=273.61
compound="COC(=O)C1=C(C(C)(C)C)Nc2sc(C(=O)c3ccc(Cl)c(Cl)c3)c(N)c2C1c1ccccc1 (stereo not drawn)" measured_value=158.97
compound="CCC1=C(C(=O)OC)C(c2ccc(F)cc2F)c2c(sc(C(=O)c3ccc(Cl)c(Cl)c3)c2N)N1 (stereo not drawn)" measured_value=234.66
compound="CCC1=C(C(=O)OC)C(c2ccccc2)c2c(sc(C(=O)c3cccc([N+](=O)[O-])c3)c2N)N1 (stereo not drawn)" measured_value=281.08
compound="CCOC(=O)C1=C(CC)Nc2sc(C(=O)c3ccc(Cl)c(Cl)c3)c(N)c2C1c1ccncc1F (stereo not drawn)" measured_value=239.64

// fetch Max Plateau given entry COC(=O)C1=C(C(C)C)Nc2sc(C(=O)c3ccc(Cl)c(Cl)c3)c(N)c2C1c1cccc([N+](=O)[O-])c1 (stereo not drawn) 98.33

Output measured Max Plateau for this item: CCOC(=O)C1=C(CC)Nc2sc(C(=O)c3ccc(F)c(F)c3)c(N)c2C1c1ccncc1F (stereo not drawn) 257.43

Identify the reported Max Plateau for the following entry. CCOC(=O)C1=C(CC)Nc2sc(C(=O)c3cccc(C(=O)O)c3)c(N)c2C1c1ccccc1 (stereo not drawn) 238.69

Report measured Max Plateau; entry is COC(=O)C1=C(C2CC2)Nc2sc(C(=O)c3cccc(Cl)c3)c(N)c2C1c1ccnc(F)c1 (racemic) 218.25

Hello, please tell me recorded Max Plateau for this one: CCC1=C(C(=O)OC(C)CC)C(c2ccccc2F)c2c(sc(C(=O)c3cccc(C#N)c3)c2N)N1 (single isomer, unassigned) 219.07

Answer with the recorded Max Plateau for the compound listed here: CCC1=C(C(=O)OC2CCCCC2)C(c2ccccc2)c2c(sc(C(=O)c3ccc(Cl)c(Cl)c3)c2N)N1 (stereo not drawn) 186.95

Return the recorded Max Plateau value; entry: CCOC(=O)C1=C(CC)Nc2sc(C(=O)c3ccc(Cl)cc3Cl)c(N)c2C1c1ccccc1 (stereo not drawn) 224.48

----------
Overview of recorded Max Plateau for various molecules
System: alpha-MyHC
Assay: alpha-MyHC cytoblot in neonatal rat ventricular myocytes (NRVM)
Format: cell-based
Conditions: Table 2, 72 hours, fitted maximum, percent fraction of low control (vehicle), in %

molecule="CCOC(=O)C1=C(CC)Nc2sc(C(=O)c3ccc(F)c(CC(=O)OC)c3)c(N)c2C1c1ccccc1 (racemic) [Compound 194]" measured_value=188.67

Output reported Max Plateau of the molecule CCOC(=O)C1=C(CC)Nc2sc(C(=O)c3cc(Cl)ccc3Cl)c(N)c2C1c1ccccc1 (stereo not shown) [Compound 146] on alpha-MyHC. 213.49

Give alpha-MyHC Max Plateau for the following molecule: CCC1=C(C(=O)OC(C)CC)C(c2ccccc2F)c2c(sc(C(=O)c3ccc(Cl)c(Cl)c3)c2N)N1 (single isomer, unassigned) [Compound 162] 183.22

Send back alpha-MyHC Max Plateau of CC1=C(C(=O)OC(C)C)C(c2ccccc2)c2c(sc(C(=O)c3ccc(Cl)c(Cl)c3)c2N)N1 (stereo not shown) [Compound 135] only. 186.32

Please indicate recorded Max Plateau of CCC1=C(C(=O)OC)C(c2cc(F)cc(F)c2)c2c(sc(C(=O)c3ccccc3)c2N)N1 (stereo not shown) [Compound 172] measured with alpha-MyHC. 304.08

Jot down Max Plateau (alpha-MyHC) of CCOC(=O)C1=C(C)Nc2sc(C(=O)c3ccc(Cl)c(Cl)c3)c(N)c2C1c1ccccc1 (stereo not shown) [Compound 113] . 256.38

GET Max Plateau | system: alpha-MyHC | item: COC(=O)C1=C(C(C)C)Nc2sc(C(=O)c3cccc(C#N)c3)c(N)c2C1c1ccccc1F (racemic) [Compound 177] 162.75
